assay: in vitro; details: mouse, cell viability (Muse Cell Analyser), single replicates
property.measured: viability at 24 h, 1 µM

molecule="N=C(N)NCCCC[C@H](N)C(=O)NCCCC[C@@H](N)C(=O)NCc1cn(Cc2cn([C@@H](CCCNC(=N)N)C(=O)O)nn2)nn1 [Compound 4, D-Lys(Har)-GlyΨ[Trl]GlyΨ[Trl]Arg]" reported_value=99.3%

----------
target: UniProtKB O14786; experiment: ELISA: inhibition of bt-VEGF165 binding to NRP-1; conditions: dose-response curve, supplement
Sequence (O14786 22-923, species assumed): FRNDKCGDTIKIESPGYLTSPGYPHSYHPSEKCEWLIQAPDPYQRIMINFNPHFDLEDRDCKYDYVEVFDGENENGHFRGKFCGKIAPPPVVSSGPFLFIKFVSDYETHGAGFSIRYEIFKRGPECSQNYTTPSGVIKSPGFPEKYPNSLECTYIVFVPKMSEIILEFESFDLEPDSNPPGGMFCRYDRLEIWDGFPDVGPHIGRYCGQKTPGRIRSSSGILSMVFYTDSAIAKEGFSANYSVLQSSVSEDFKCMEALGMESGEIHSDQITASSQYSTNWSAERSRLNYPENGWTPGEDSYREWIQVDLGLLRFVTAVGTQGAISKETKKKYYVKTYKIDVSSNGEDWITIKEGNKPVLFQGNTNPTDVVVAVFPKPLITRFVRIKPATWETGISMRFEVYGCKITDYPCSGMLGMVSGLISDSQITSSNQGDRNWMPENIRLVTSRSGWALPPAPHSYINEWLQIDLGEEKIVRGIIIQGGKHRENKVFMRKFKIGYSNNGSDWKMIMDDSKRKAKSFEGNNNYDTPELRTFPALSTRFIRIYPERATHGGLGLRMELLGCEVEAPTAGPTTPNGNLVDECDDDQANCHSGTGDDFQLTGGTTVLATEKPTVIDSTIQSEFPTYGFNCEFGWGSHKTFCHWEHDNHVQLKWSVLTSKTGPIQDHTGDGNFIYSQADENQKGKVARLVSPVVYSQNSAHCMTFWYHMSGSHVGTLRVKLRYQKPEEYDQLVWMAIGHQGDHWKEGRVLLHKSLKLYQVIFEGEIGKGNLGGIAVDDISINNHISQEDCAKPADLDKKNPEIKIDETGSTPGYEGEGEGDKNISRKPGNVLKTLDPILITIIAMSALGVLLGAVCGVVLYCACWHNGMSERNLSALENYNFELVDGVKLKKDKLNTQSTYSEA
property.measured: IC50

compound="N=C(N)NCCCC[C@@H](N)C(=O)NCCCC[C@@H](N)C(=O)NCc1cn(Cc2cn([C@@H](CCCNC(=N)N)C(=O)O)nn2)nn1 [Compound 5, D-Lys(D-Har)-GlyΨ[Trl]GlyΨ[Trl]Arg]" reported_value="9.11 µM"
